Test system: RXF 393 renal
experiment: NCI-60 one-dose screen, 48 h (100 = growth as untreated, 0 = no growth, -100 = all killed)
conditionDescription: 10 µM
About 83,000 compounds went through this panel and 20% of them were active in at least one assay; those are over-represented in the sample as a whole.
Listed below: growth values for each entry.
Please give a number only; it is taken to be in %.

Previously resolved entries follow.
molecule | growth / %
COc1ccc(N(C)c2cc(C#N)nc3ccccc23)cc1N | 57.2
COc1ccc(OC)c(/C=N/NC(=O)c2ccc3nc(-c4ccc(Cl)cc4)[nH]c3c2)c1 | 3.46
COc1ccc2[nH]c(=O)c(CSc3nccc(-c4ccc(Cl)cc4)n3)cc2c1 | -23.7

stdin: Provide value of growth for this record tested with RXF 393 renal: O=C(c1ccc(Cl)cc1)C1[C@H](c2ccccc2Br)[C@@H](c2ccccc2)NC12C(=O)Nc1ccccc12 (some centres undefined)
stdout: -12.6

stdin: Fill in the recorded growth for this molecule, with RXF 393 renal as test system: O=C(CSc1ccc(-c2ccc(Cl)cc2)nn1)Nc1ccc(Cl)c(C(F)(F)F)c1
stdout: 71.1

stdin: Return growth measured with RXF 393 renal given this molecule: COc1ccc2[nH]c(O)c(N=NC(=O)c3cc(-c4ccc(C)cc4)nc4ccccc34)c2c1
stdout: 92.4

stdin: Test system RXF 393 renal; read-out growth; what value for COc1ccc(C(=O)Nc2sc3c(c2C#N)CCC(=O)C3)cc1C(F)(F)F ?
stdout: -41.9

stdin: Return growth measured with RXF 393 renal given this molecule: O=C(CS(=O)(=O)c1oc(-c2ccc(Cl)cc2)nc1S(=O)(=O)c1ccccc1)N1CCCC1
stdout: -97.8

stdin: For the record COc1ccc2nc(Cl)c(-c3cc(-c4ccccc4)nc(=S)[nH]3)cc2c1 , what value of growth is listed for RXF 393 renal?
stdout: 46.2

stdin: Item: CC(C)(C)Nc1nc2cc(Cl)c(Cl)cc2nc1S(C)(=O)=O Test system: RXF 393 renal Read-out: growth Value: ?
stdout: 6.24

stdin: Give the reported growth for CCC(C)S(=O)(=O)c1oc(-c2ccc(C)cc2)nc1S(=O)(=O)c1ccccc1 (centres undefined) (system: RXF 393 renal).
stdout: -98

stdin: Please state recorded growth (tested on RXF 393 renal) of CC(C)C(=O)Nc1ccc(C(=O)NC(=S)Nc2ccc(C(=O)O)cc2)cc1
stdout: 111

stdin: Observed growth on RXF 393 renal for CC1(C)CC[C@]2(C(=O)O)CC[C@]3(C)C(=CC[C@@H]4[C@@]5(C)C/C(=C/c6ccncc6)[C@H](O)C(C)(C)[C@@H]5CC[C@]43C)[C@@H]2C1 , please.
stdout: 24.2

stdin: Item O=C(c1ccc(Cl)cc1)C1[C@H](c2ccccc2Br)[C@@H](c2ccccc2)NC12C(=O)Nc1ccc(Cl)cc12 (some centres undefined) with RXF 393 renal - growth?
stdout: -33.7

stdin: Field: growth (RXF 393 renal). Entry: Cc1cccc2cc(-c3cc(-c4ccccc4)nc(=S)[nH]3)c(Cl)nc12
stdout: 78.9

stdin: What reported growth corresponds to O=C(Nc1nc2ccc([N+](=O)[O-])cc2s1)Nc1cc(Cl)ccc1I on RXF 393 renal?
stdout: -44.8

stdin: API: value(readout=growth, system=RXF 393 renal) for record COc1ccc(-c2nc(S(=O)(=O)c3ccccc3)c(S(C)(=O)=O)o2)cc1
stdout: -90.8

stdin: # get_value(readout= growth, system= RXF 393 renal) for CC(=O)Nc1ccc(-n2cnc3cc(-c4ccc(NS(C)(=O)=O)cc4)ccc32)cc1
stdout: 92.5

stdin: Which growth is reported with RXF 393 renal for this entry: Brc1ccc(/C=C/c2n(Cc3ccc4ccccc4c3)c3ccccc3[n+]2Cc2ccc3ccccc3c2)cc1 ?
stdout: -83.1
